Sourced from ChEMBL document CHEMBL4265907

Target: Fibroblast growth factor receptor 1 (Homo sapiens) (UniProt P11362)
Test: Inhibition of N-terminal GST-tagged human FGFR1 cytoplasmic domain (398 to 822 residues) expressed in baculovirus expression system at […] using FAM-labeled peptide as substrate after 10 mins by mobility shift assay relative to control
Field: inhibition. Provide a value for each of the compounds that follow.
Express your answer in %, writing the number without its unit.

Q: Quick one: inhibition of `O=C(/C=C/c1ccccc1)Nc1cc(Nc2ccc(N3CCOCC3)cc2)ncn1` ?
A: -0.3

Q: Next compound: `Cc1ccc(Nc2cc(NC(=O)c3ccc(F)cc3)ncn2)cc1`
A: -4.8

Q: Next compound: `CCOC(=O)CCC(=O)Nc1cc(Nc2ccc(N3CCN(C)CC3)cc2)ncn1`
A: -6.6

Q: Next compound: `O=C(/C=C/c1ccc(F)cc1Br)Nc1cc(N2CCOCC2)ncn1`
A: -7.1

Q: Next compound: `CC(C)OC(=O)CCC(=O)Nc1cc(Nc2ccc(F)cc2)ncn1`
A: -6.5

Q: Next compound: `O=C(/C=C/c1ccc(F)cc1Br)Nc1cc(Nc2ccc(Cl)cc2Cl)ncn1`
A: -4.6

Q: Next compound: `O=C(/C=C/c1ccc(F)cc1)Nc1cc(Nc2ccc(Cl)cc2Cl)ncn1`
A: -2.9

Q: Next compound: `O=C(/C=C/c1ccc(F)cc1)Nc1cc(Nc2ccc(Cl)cc2)ncn1`
A: 3.1

Q: Next compound: `COc1cccc(Nc2cc(Nc3cc(OC)ccc3OC)ncn2)c1`
A: -9.3

Q: Next compound: `O=C(O)CCCC(=O)Nc1cc(Nc2ccccc2)ncn1`
A: -4

Q: Next compound: CCCC(C)OC(=O)CCC(=O)Nc1cc(Nc2cccc(C(=O)OC(C)CCC)c2)ncn1 (stereo unspecified)
A: -5
